The entries below are paired with their reported protein stability index.
B1: POMT2 (parent)
chain: VKYNSCADRPFSAPWWFWLSLTGV

Variants of: B1
experimentalProtocol: protein stability index of a GFP-peptide fusion (GPS, HEK-293T) (PSI 1-6); higher = more stable;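 note: lentivirally expressed fusions sorted by FACS into six bins by GFP to DsRed ratio, PSI derived from sequencing read proportions per bin multiplied by bin number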
condition: c terminus: a fixed tail appended
Write the number on its own, no unit after it.

> print(dat)
   mutant          measurementname  result
1    F11S  protein stability index       1
2    P14V  protein stability index    2.71
3    S20C  protein stability index    2.22
4    W15H  protein stability index    2.54
5     R9I  protein stability index    3.57

INPUT: Provide only the value of recorded protein stability index for K2N
OUTPUT: 2.4

INPUT: Provide only the value of recorded protein stability index for D8I
OUTPUT: 3.67

INPUT: Provide only the value of recorded protein stability index for S12A
OUTPUT: 3.27

INPUT: Provide only the value of recorded protein stability index for C6L
OUTPUT: 2.11

INPUT: Provide only the value of recorded protein stability index for T22I
OUTPUT: 1.56

INPUT: Provide only the value of recorded protein stability index for V24Y
OUTPUT: 2.1
